Reference source for all entries: PubChem BioAssay (NCI)

ASSAY_DETAILS: NCI Yeast Anticancer Drug Screen. Data for the rad50 strain (AID 155);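 note: 0% = growth of vehicle-only cultures of the same strain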
EXPERIMENTAL_SETUP: S. cerevisiae rad50 strain growth inhibition; at 50.0 µM; hits give high values
This is part of a sample that, as a whole, favours compounds with a hit. Of some 79,000 tested, about 15% had one in any assay.
READOUT_NAME: growth inhibition (%)
Number in %, nothing else.

CC(=O)O[C@@H]1CC[C@@]2(C)C(=O)C34C[C@@]5(C)C([C@@H](C)CCCC(C)C)CCC5(C)[C@](O)(O3)C(=O)[C@H]4C2C1(C)C (stereo partly specified) = 18.4

Query: Recall and state the measured growth inhibition for Cc1cc(N(CCO)CCO)c2ccc3cc4ccccc4cc3c2n1 .
Result: 38.5

Query: Recall and state the measured growth inhibition for O=[N+]([O-])/C=C/c1cn(CCCCCn2cc(/C=C/[N+](=O)[O-])c3ccccc32)c2ccccc12 .
Result: -5.65

Query: Recall and state the measured growth inhibition for C=CCOC(=O)CC(O)(CC(=O)OCC=C)C(=O)OCC=C .
Result: -3.4

Query: Recall and state the measured growth inhibition for CCOC(=O)C(CCN(C)C)(CCN(C)C)c1ccccc1 .
Result: -6.3

Query: Recall and state the measured growth inhibition for CC(CC[C@@H](O)C(C)(C)O)C1[C@@H](O)CC2(C)C3CC(O)C4C(C)(C)[C@@H](OC5OC(CO)C(O)C(O)C5O)CC[C@@]45C[C@@]35CC[C@]12C (stereo partly specified) .
Result: -14.9

Query: Recall and state the measured growth inhibition for CC(NC(=O)NC(C)(C)C)NC(=O)C(N)CC(=O)O (stereo unspecified) .
Result: -51.8

Query: Recall and state the measured growth inhibition for c1ccc(-c2cc[c]([Sn]([c]3ccccc3)([c]3ccccc3)[c]3ccccc3)cc2)cc1 .
Result: 95.2

Query: Recall and state the measured growth inhibition for C[C@]12CC[C@H](OC3CCCCO3)CC1=CC[C@@H]1C2CC[C@]2(C)/C(=N/OCCC#N)CCC12 (stereo partly specified) .
Result: 16.9

Query: Recall and state the measured growth inhibition for Cn1c(=O)c2c(nc(N3CCOCC3)n2CCCNCC(O)c2ccc(O)c(O)c2)n(C)c1=O (stereo unspecified) .
Result: -40.9

Query: Recall and state the measured growth inhibition for C=Cc1ccccc1NC(C(=O)O)c1ccccc1 (stereo unspecified) .
Result: 18.8

Query: Recall and state the measured growth inhibition for CC(O)c1cccc(NC(=O)Nc2ccc(Cl)c(Cl)c2)c1 (stereo unspecified) .
Result: 12

Query: Recall and state the measured growth inhibition for Cc1ccc(/C=C/C(=N/NC(=O)c2ccccc2)C(C)CN(C)C)cc1 (stereo unspecified) .
Result: 6.6

Query: Recall and state the measured growth inhibition for O=[N+]([O-])c1cc2c(c([N+](=O)[O-])c1)Nc1cc(Cl)ccc1O2 .
Result: 1.6

Query: Recall and state the measured growth inhibition for N#Cc1ccccc1OCCCCOc1ccccc1C#N .
Result: 8.7

Query: Recall and state the measured growth inhibition for O=C(O)c1ccc2ccccc2c1C(=O)c1ccc(F)cc1 .
Result: 10.1

Query: Recall and state the measured growth inhibition for Oc1c2cccc1Cc1cccc3c1OCCOCCOCCOCCOc1c(cccc1Cc1cccc(c1O)C3)C2 .
Result: 9.1

Query: Recall and state the measured growth inhibition for COc1cc(NN=C(C#N)C#N)c(OC)cc1Cl .
Result: 37.6

Query: Recall and state the measured growth inhibition for OCCn1c2ccccc2c2ccccc21 .
Result: 20.2

Query: Recall and state the measured growth inhibition for NC(Cc1cccnn1)C(=O)O (stereo unspecified) .
Result: -29.2

Query: Recall and state the measured growth inhibition for CCOC(=O)C(CCC(=O)OC)C(=O)OCC .
Result: -2.45
